Tested on: C6 glioma cells
Assay: Cytotoxic effect of 5-FU on glioma cells, MTT assay
Assay type: cell-based
Conditions: C6 glioma, 168 h, C6, 5-FU 1 week, read-out: IC50 of cell death
observed.property: IC50 (nM)
Give bare numbers, in nM.

Query block: Any idea what IC50 was measured for O=c1[nH]cc(F)c(=O)[nH]1 [5-FU, 5-fluorouracil] ?
Result block: 930

----------
Tested on: U373 glioma cells
Assay: Cytotoxic effect of 5-FU on glioma cells, MTT assay
Assay type: cell-based
Details: Homo sapiens, U373 MG, 168 h, U373, 5-FU 1 week, read-out: IC50 of cell death
observed.property: pIC50
Numbers only, as −log10 of the molar value.

Query block: Any idea what pIC50 was measured for "O=c1[nH]cc(F)c(=O)[nH]1" ?
Result block: 5.27
